- Test system: miR-21
- PROTOCOL NOTES: miR-21 luciferase sensor assay in Hela cells
- Assay type: cell-based
- CONDITIONS USED: .8 nM oligonucleotide; Hela cells
MEASUREMENT KIND: luciferase value normalized to beta-galactosidase activity

SUBSTANCE	EXPERIMENTAL VALUE
TE^MeCAACSATCSAGTCSTGAUSAAGCSTAE (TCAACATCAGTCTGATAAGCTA; modified nucleosides with 5-methyl C, code letters not given here, further chemistry not given here) [Compound 25082]	89
Ae^MeCAST^MeCAGST^MeCTGASTASAGS^MeCTAe (ACATCAGTCTGATAAGCTA; listed as DNA, chemistry not fully specified) [Compound 25071]	36
TE^MeCEAEAECSAETECSAEGETECSTEGEAEUSAEAEGECSTEAE (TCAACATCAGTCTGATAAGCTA; modified nucleosides and phosphorothioate, code letters not given here, further chemistry not given here) [Compound 25068]	54
UECEAFAFCFAFUFCFAFGFUFCEUEGEAFUFAFAFGFCFUEAE (antisense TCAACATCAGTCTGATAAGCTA; listed as DNA, chemistry not fully specified) [Compound 25919, reference compound]	53

Each recorded value in this set is attributed to patent US20120270928A1.
